Values compiled from ChEMBL document CHEMBL1201862.

- System: SR
- protocol-description: NCI tumour cell line growth inhibition, 48 h
Activity calls are given as the source filed them. Cut-off read from the data, not from the text of the source: active = GI50 up to about 1.1 µM and inactive = higher.
Classes used: TRUE for active, FALSE for inactive

{"columns": ["molecule", "classification"],
 "data": [
  ["C=C(C)[C@@]1(O)O[C@H]2C[C@@]3(C)OC(=CC3=O)/C(C)=C\\[C@@H]3OC(=O)[C@@]1(C)[C@H]32", "FALSE"],
  ["O=C1C2CC[C@@H]3C(=O)C(Cl)(Cl)[C@@H]3CCC2C1(Cl)Cl (some centres undefined)", "FALSE"],
  ["O=C1Nc2cccc3ncn(c23)C2=C1CCCC2", "FALSE"],
  ["CC(=O)Nc1ccc(Nc2cc(=O)n(C)c(=O)[nH]2)cc1", "FALSE"],
  ["CC1(C)O[C@H]2[C@@H]3N=C(c4ccccc4)O[C@@H]3C=C[C@H]2O1", "FALSE"],
  ["COC(=O)C1C(=O)CC(C)(O)C(C(=O)OC)C1c1ccc(N(C)C)cc1 (centres undefined)", "FALSE"],
  ["O=C(c1ccccc1)N1CCN(C(=S)N(C(=O)c2ccccc2)c2ccccc2)C1=S", "FALSE"],
  ["CCc1nc(N)nc(N)c1-c1ccc(NCCN)c([N+](=O)[O-])c1", "FALSE"],
  ["COc1cc2cc(C(=O)N3CC(CCl)c4ccc([N+](C)(C)Cc5ccccc5[N+](=O)[O-])cc43)[nH]c2c(OC)c1OC (centres undefined)", "TRUE"],
  ["O=C(NC1=C(Cl)C(=O)c2ccccc2C1=O)c1ccc(F)cc1", "FALSE"],
  ["CC1CCC2C(C)C(OC(=O)CCC(=O)O)OC3OC4(C)CCC1C32OO4 (centres undefined)", "TRUE"],
  ["C/C=C/C(=O)[C@@H](O)C(C)C", "FALSE"],
  ["O=c1cnn(C/C=C/CBr)c(=O)[nH]1", "FALSE"],
  ["COc1ccc(N2C(=O)/C(=C(\\C)c3cc4ccccc4oc3=O)N=C2c2cc([N+](=O)[O-])ccc2Cl)cc1", "FALSE"],
  ["COc1cc(/C=C(\\C#N)C(N)=C(C#N)C#N)cc(O)c1O", "FALSE"],
  ["COc1cc(C(=O)c2cocc2C(=O)c2ccc3c(c2)OCO3)cc(OC)c1OC", "TRUE"],
  ["CSc1c(C#N)c2n(c3ccccc3[n+]2C)c2ncccc12", "FALSE"],
  ["COC(=O)/C(=N/O)C(C(=O)C=C(C)C)C(=O)C(=O)Nc1nc2ccc([N+](=O)[O-])cc2s1 (centres undefined)", "FALSE"],
  ["Nc1ccc(/N=N/c2ccc(-c3ccc(/N=N/c4c(S(=O)(=O)O)cc5cc(S(=O)(=O)O)c(/N=N/c6ccc([N+](=O)[O-])cc6)c(N)c5c4O)cc3)cc2)c2cc(S(=O)(=O)O)ccc12", "FALSE"]
]}
